Data origin, for the record: the supplement of paper PMC12317010

- Measurement notes: collision cross section in nitrogen (drift tube, single-field); higher = larger gas-phase ion size;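 note: chemical standards at 10 µM analysed by drift tube IMS-QTOF MS in about 3.95 torr nitrogen, mean of duplicate injections differing ≤1%, mass error below 10 ppm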
- Measurement parameters: ion type: [M+H]; ion source: APCI; ion mode: Positive
Readout type: collision cross section in nitrogen

Some compounds with known collision cross section in nitrogen results, for comparison:
[
  {
    "Compound": "CC(C)C1(C)N=C(c2ncccc2C(=O)O)NC1=O (configuration not stated)",
    "collision cross section in nitrogen": "156.5 Å²"
  },
  {
    "Compound": "CC(C)OP(=O)(CP(=O)(OC(C)C)OC(C)C)OC(C)C [Tetraisopropyl methylenediphosphonate]",
    "collision cross section in nitrogen": "174.6 Å²"
  },
  {
    "Compound": "OC(Cc1ccccc1Cl)(Cn1cncn1)C1(Cl)CC1 (configuration not stated)",
    "collision cross section in nitrogen": "167.3 Å²"
  }
]

Query block: State the recorded collision cross section in nitrogen for this entry: CC(C)(Oc1ccc(CCNC(=O)c2ccc(Cl)cc2)cc1)C(=O)O [Bezafibrate]
Result block: 178.5 Å²

Query block: State the recorded collision cross section in nitrogen for this entry: CC(C)OC(=O)C(C)N(C(=O)c1ccccc1)c1ccc(F)c(Cl)c1 (configuration not stated)
Result block: 182.1 Å²

Query block: State the recorded collision cross section in nitrogen for this entry: Cn1c(=O)[nH]c2ncn(C)c2c1=O
Result block: 134.2 Å²

Query block: State the recorded collision cross section in nitrogen for this entry: c1ccc2ncccc2c1
Result block: 120.8 Å²

Query block: State the recorded collision cross section in nitrogen for this entry: CC(C)N1C(=O)N(c2ccccc2)CSC1=NC(C)(C)C
Result block: 173.6 Å²

Query block: State the recorded collision cross section in nitrogen for this entry: O=C1c2ccccc2C(=O)N1CCc1noc(-c2ccc(CN3CCCCCC3)s2)n1
Result block: 214.3 Å²

Query block: State the recorded collision cross section in nitrogen for this entry: CCCOC(=O)NCCCN(C)C [Propamocarb]
Result block: 142.9 Å²

Query block: State the recorded collision cross section in nitrogen for this entry: O=c1[nH]c2ccccc2n1C1CCN(CCCC(c2ccc(F)cc2)c2ccc(F)cc2)CC1 [Pimozide]
Result block: 211.9 Å²

---

- Measurement notes: collision cross section in nitrogen (drift tube, single-field); higher = larger gas-phase ion size
- Measurement parameters: ion type: [M+Na]; ion source: ESI; ion mode: Positive
Structures can show the parent of a compound that is named as a salt.
Readout type: collision cross section in nitrogen (Å²)
State just the number; it will be interpreted in Å².

Some molecules with known collision cross section in nitrogen results, for comparison:
[
  {
    "Molecule": "OCCOCCN1CCN(C(c2ccccc2)c2ccc(Cl)cc2)CC1 (stereo not given) [Hydroxyzine hydrochloride]",
    "Readout type": "collision cross section in nitrogen",
    "Measurement unit": "Å²",
    "Measured": 195.7
  },
  {
    "Molecule": "CCc1cccc(C)c1N(C(=O)CS(=O)(=O)O)C(C)COC (stereo not given)",
    "Readout type": "collision cross section in nitrogen",
    "Measurement unit": "Å²",
    "Measured": 177.4
  },
  {
    "Molecule": "CCOC(=O)C(Cl)Cc1cc(-n2nc(C)n(C(F)F)c2=O)c(F)cc1Cl (stereo not given)",
    "Readout type": "collision cross section in nitrogen",
    "Measurement unit": "Å²",
    "Measured": 187.9
  },
  {
    "Molecule": "CN(C)C(=O)Nc1ccccc1",
    "Readout type": "collision cross section in nitrogen",
    "Measurement unit": "Å²",
    "Measured": 144.7
  },
  {
    "Molecule": "CC(C)CCCCCCCOC(=O)c1ccccc1C(=O)OCCCCCCCC(C)C",
    "Readout type": "collision cross section in nitrogen",
    "Measurement unit": "Å²",
    "Measured": 225.8
  }
]

Query block: State the recorded collision cross section in nitrogen for this entry: O=P(OCCCl)(OCCCl)OCCCl [Tris(2-chloroethyl) phosphate]
Result block: 160.2

Query block: State the recorded collision cross section in nitrogen for this entry: CCOC(=O)NNc1nncc2ccccc12 [Todralazine hydrochloride]
Result block: 158.8

Query block: State the recorded collision cross section in nitrogen for this entry: CS(=O)(=O)c1ccc(C(=O)C2C(=O)CCCC2=O)c(Cl)c1COCC(F)(F)F
Result block: 185.1

Query block: State the recorded collision cross section in nitrogen for this entry: COc1ccccc1NC(=O)CC(C)=O [N-(2-Methoxyphenyl)-3-oxobutanamide]
Result block: 152.3

Query block: State the recorded collision cross section in nitrogen for this entry: N=c1ccn2c(n1)O[C@H]1[C@H](O)[C@@H](CO)O[C@H]12
Result block: 156.7
